# Tested On: UniProt:Q99705
# Sequence (Q99705 whole entry): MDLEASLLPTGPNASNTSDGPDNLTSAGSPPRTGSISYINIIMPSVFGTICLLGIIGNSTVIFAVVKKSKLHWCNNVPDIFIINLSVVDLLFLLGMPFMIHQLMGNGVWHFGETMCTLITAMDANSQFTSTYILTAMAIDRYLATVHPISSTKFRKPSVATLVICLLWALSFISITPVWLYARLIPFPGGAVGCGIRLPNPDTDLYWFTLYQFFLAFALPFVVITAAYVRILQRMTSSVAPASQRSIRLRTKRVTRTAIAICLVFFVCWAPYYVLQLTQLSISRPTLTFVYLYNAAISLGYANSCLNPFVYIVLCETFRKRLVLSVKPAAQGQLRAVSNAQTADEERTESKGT
Readout Name: Ki (nM)
# unit: nM | format: bare number

Cn1c2c(c3ccc(-n4ccc(OCc5ccccc5)cc4=O)cc31)CCNC2 :: 4.9
COc1cc(Cl)ccc1-c1ccn(-c2ccc3c4c(n(C)c3c2)CNCC4)c(=O)c1 :: 17

The record that follows has no Ki shown yet.
Measured Ki, Cn1c2c(c3ccc(-n4ccc(OCc5ccc(Cl)cc5)cc4=O)cc31)CNCC2 : 4.2

---

# Tested On: UniProtKB P20813
# Sequence (P20813 whole entry): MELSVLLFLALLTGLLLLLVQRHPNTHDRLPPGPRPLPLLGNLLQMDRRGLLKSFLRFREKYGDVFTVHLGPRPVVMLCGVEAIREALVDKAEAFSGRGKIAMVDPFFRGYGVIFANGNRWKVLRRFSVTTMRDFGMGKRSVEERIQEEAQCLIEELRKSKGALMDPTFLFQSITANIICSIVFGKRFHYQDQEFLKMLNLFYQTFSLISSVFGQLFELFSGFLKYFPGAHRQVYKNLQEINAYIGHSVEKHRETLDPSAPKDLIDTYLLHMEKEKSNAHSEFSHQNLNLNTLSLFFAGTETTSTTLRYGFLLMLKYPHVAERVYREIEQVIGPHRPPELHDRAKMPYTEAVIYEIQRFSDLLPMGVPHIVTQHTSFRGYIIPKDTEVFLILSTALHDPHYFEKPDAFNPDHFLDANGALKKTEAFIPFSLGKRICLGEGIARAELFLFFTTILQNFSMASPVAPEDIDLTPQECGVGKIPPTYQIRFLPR
# Test Description: Inhibition of CYP2B6
# Assay type: ADME
Readout Name: IC50

Cn1c2c(c3ccc(-n4ccc(OCc5ccccc5)cc4=O)cc31)CCNC2 :: > 10 µM
Cn1c2c(c3ccc(-n4ccc(OCc5ccccc5)cc4=O)cc31)CNCC2 :: > 10 µM

Measured IC50, CN1CCc2c(c3ccc(-n4ccc(OCc5ccccc5)cc4=O)cc3n2C)C1 : > 10 µM
